# Tested on: Ba/F3 P210-BCR-ABL1 RUNX1-/mut (mouse)
# assay.method.text: drug sensitivity score (DSS) (DSS score); higher = more sensitive (stronger growth inhibition); extreme values may be limits of the assay
endpoint: drug sensitivity score

Cc1cc(Nc2cc(N3CCN(C)CC3)nc(Sc3ccc(NC(=O)C4CC4)cc3)n2)n[nH]1 = 12.3

Exercise: Requested read-out: drug sensitivity score. Entry: Cn1cnc2c(F)c(Nc3ccc(Br)cc3F)c(C(=O)NOCCO)cc21
Key: 0.3

Exercise: Please do the same for C[C@@H]1C[C@H]2[C@@H]3CCC4=CC(=O)C=C[C@]4(C)[C@@]3(F)[C@@H](O)C[C@]2(C)[C@@]1(O)C(=O)CO as well.
Key: 3.55

Exercise: Then O=c1[nH]c(=O)n([C@H]2C[C@H](O)[C@@H](CO)O2)cc1F ?
Key: 31.6

---

# Test system: Ba/F3 P210-BCR-ABL1 RUNX1wt/wt control (mouse)
# assay.method.text: drug sensitivity score (DSS) (DSS score); higher = more sensitive (stronger growth inhibition); extreme values may be limits of the assay
# Lookup of reported drug sensitivity score keyed by entry

COc1cc2c(NC3CCN(C(C)C)CC3)nc(N3CCC(F)(F)CC3)nc2cc1OCCCN1CCCC1 [UNC0642] = 0.15
Oc1ccc2c(c1)CC[C@H](c1ccccc1)[C@@H]2c1ccc(OCCN2CCCC2)cc1 [Lasofoxifene] = 0
CO[C@@H]1[C@H](N(C)C(=O)c2ccccc2)C[C@H]2O[C@]1(C)n1c3ccccc3c3c4c(c5c6ccccc6n2c5c31)C(=O)NC4 [Midostaurin] = 6.15
CCCCCCCCCCCCCCCCOP(=O)([O-])OCC[N+](C)(C)C [Miltefosine] = 2
COc1ccccc1S(=O)(=O)Nc1ccc2c(c1)CN(C)C(=O)N2 [PFI-1] = 9.35
CC(C)NC(=O)COc1cccc(-c2nc(Nc3ccc4[nH]ncc4c3)c3ccccc3n2)c1 [KD025] = 0
Cc1nn(C)c(COc2ccc(N3CCN(S(=O)(=O)N(C)C)CC3)cc2)c1-c1cccc2c(CCCOc3cccc4ccccc34)c(C(=O)O)n(CCN3CCOCC3)c12 = 6.65
CCOc1ccn(-c2ccc(F)cc2)c(=O)c1C(=O)Nc1ccc(Oc2ccnc(N)c2Cl)c(F)c1 = 0

Exercise: # lookup: drug sensitivity score of CO[C@H]1CC[C@H](N2C(=O)CNc3ncc(-c4ccc(C(C)(C)O)nc4)nc32)CC1 [CC-223]
Key: 2.45

Exercise: Okay, and CC(=O)Nc1ccc(C(=O)Nc2ccccc2N)cc1 [Tacedinaline] ?
Key: 0

Exercise: And then Cc1sc2c(c1C)C(c1ccc(Cl)cc1)=N[C@@H](CC(=O)Nc1ccc(OCCOCCOCCOCCNc3cccc4c3C(=O)N(C3CCC(=O)NC3=O)C4=O)cc1)c1nnc(C)n1-2 (stereo not given in full) [ARV-825] , what is it?
Key: 17.9

Exercise: Here is the next compound: C=CC(=O)Nc1cc(Nc2nccc(-c3cn(C)c4ccccc34)n2)c(OC)cc1N(C)CCN(C)C [Osimertinib]
Key: 1.25

Exercise: Query CC(C)Cn1cnc2c(N)nc3ccccc3c21 [Imiquimod] next
Key: 0.7

Exercise: Can you handle C[C@H]1C[C@@H]2[C@H]([C@@H](O)C[C@@]3(C)[C@H]2CC[C@]3(O)C(=O)CO)[C@@]2(C)C=CC(=O)C=C12 [Methylprednisolone] next?
Key: 0.25

Exercise: Queued: Cn1c(Nc2ccc(C(F)(F)F)cc2)nc2cc(Oc3ccnc(-c4ncc(C(F)(F)F)[nH]4)c3)ccc21 [NVP-RAF265]
Key: 0

---

# Tested on: Mye-BP RUNX1 p.R107C
# assay.method.text: drug sensitivity score (DSS) (DSS score); higher = more sensitive (stronger growth inhibition); extreme values may be limits of the assay
endpoint: drug sensitivity score
Provide a numeric answer; units are not to be included.

Here are 2 compounds together with their reported answers.
CC(=O)O[C@H]1C(=O)[C@@]2(C)[C@H]([C@H](OC(=O)c3ccccc3)[C@]3(O)C[C@H](OC(=O)[C@H](O)[C@@H](NC(=O)c4ccccc4)c4ccccc4)C(C)=C1C3(C)C)[C@]1(OC(C)=O)CO[C@@H]1C[C@@H]2O = 8.1
CO[C@@]12[C@H](COC(N)=O)C3=C(C(=O)C(C)=C(N)C3=O)N1C[C@@H]1N[C@@H]12 = 10.8

Exercise: Field request: drug sensitivity score | item: Nc1ccn([C@@H]2O[C@H](CO)[C@@H](O)C2(F)F)c(=O)n1
Key: 5.1

---

# Test system: Ba/F3 P210-BCR-ABL1 RUNX1wt/wt control (mouse)
# assay.method.text: drug sensitivity score (DSS) (DSS score); higher = more sensitive (stronger growth inhibition); extreme values may be limits of the assay
endpoint: drug sensitivity score
Respond numerically, and do not add a unit to the figure.

COc1cc(N2CCC(N3CCN(C)CC3)CC2)ccc1Nc1ncnc(Nc2ccccc2S(=O)(=O)C(C)C)n1 = 1.05
C[C@@H](Oc1ccc2[nH]nc(/C=C/c3cnn(CCO)c3)c2c1)c1c(Cl)cncc1Cl = 6.65
Cn1ncc(Cl)c1-c1cc(C(=O)N[C@H](CN)Cc2cccc(F)c2)sc1Cl = 0
CN1CCN(C2CCN(C(=O)Nc3cc(Oc4ccc(NC(=O)C5(C(=O)Nc6ccc(F)cc6)CC5)c(F)c4)ccn3)CC2)CC1 = 0
CCS(=O)(=O)N1CC(CC#N)(n2cc(-c3ncnc4[nH]ccc34)cn2)C1 = 0

Exercise: Give the measured drug sensitivity score of C[C@@H]1COC(Nc2ccc3ncnc(Nc4ccc(OCc5nccs5)c(Cl)c4)c3c2)=N1 .
Key: 0

Exercise: Quick one: CCCCCOC(=O)Nc1nc(=O)n([C@@H]2O[C@H](C)[C@@H](O)[C@H]2O)cc1F
Key: 0

Exercise: Thanks! And Cn1cc(CNCC2CCN(c3ncc(C(=O)NO)cn3)CC2)c2ccccc21 ?
Key: 15.3

Exercise: Cool, now CC(C)Nc1cc(-c2c[nH]c(C(=O)N[C@H](CO)c3cccc(Cl)c3)c2)c(Cl)cn1
Key: 2.45

Exercise: Would you mind doing Cc1ccc(C(=O)Nc2ccc(Oc3cc4cnn(C)c4cc3-c3cn[nH]c3)c(F)c2)c(=O)n1-c1ccc(F)cc1 as well?
Key: 0.05

Exercise: And then CNCc1ccc(-c2[nH]c3cc(F)cc4c3c2CCNC4=O)cc1 , what is it?
Key: 0

Exercise: Then O=C(/C=C/c1cccnc1)NCCCCC1CCN(C(=O)c2ccccc2)CC1 ?
Key: 15.9

Exercise: Now consider NC(=S)N/N=C/c1ncccc1N and answer again.
Key: 4.65

Exercise: Check CN[C@@H](C)C(=O)N[C@H](C(=O)N1CCC[C@H]1c1nc(C(=O)c2ccc(F)cc2)cs1)C1CCCCC1 too.
Key: 23.6

Exercise: Would you kindly repeat that for C[C@@]1(C(=O)Nc2ccc(F)nc2)CCCN1c1nc(Nc2cc(C3CC3)n[nH]2)c2cccn2n1 ?
Key: 1.2

Exercise: For CCCOc1ccn2c(C(C)=O)cc(-c3ccccc3S(C)(=O)=O)c2c1 then?
Key: 0

Exercise: Next up: C[C@]12CC[C@@H]3c4ccc(O)cc4C[C@@H](CCCCCCCCC[S+]([O-])CCCC(F)(F)C(F)(F)F)[C@H]3[C@@H]1CC[C@@H]2O (some centres not stated)
Key: 0

Exercise: Please give the result for CC1(C)NC(=O)N(c2ccc([N+](=O)[O-])c(C(F)(F)F)c2)C1=O [Nilutamide] too.
Key: 0.2

Exercise: Would you mind doing CC[C@@H]1C(=O)N(C)c2cnc(Nc3ccc(C(=O)N[C@H]4CC[C@H](N5CCN(CC6CC6)CC5)CC4)cc3OC)nc2N1C(C)C as well?
Key: 5.9

Exercise: Consider next the compound CC(C)(C#N)c1cc(Cn2cncn2)cc(C(C)(C)C#N)c1 in the same way.
Key: 0

Exercise: Also C[C@H]1C[C@@H](n2c(Nc3ccc(OC(F)(F)F)cc3)nc3cc(CCC(=O)O)ccc32)CC(C)(C)C1 , if possible.
Key: 0

Exercise: What do you have for CNC(=O)c1ccc(C)c(-n2c(C)cc(OCc3ccc(F)cc3F)c(Br)c2=O)c1 ?
Key: 0

Exercise: Moving on to the next compound: CNC(=O)c1ccc2cc([C@@]3(O)CCn4cncc43)ccc2c1
Key: 0

Exercise: Do the same for CNc1nc(Nc2cn(C(C)(C)C#N)nc2C)ncc1C(F)(F)F please
Key: 0

---

Recorded drug sensitivity score, one value per entry.
# Tested on: Ba/F3 P210-BCR-ABL1 RUNX1wt/wt control (mouse)
# assay.method.text: drug sensitivity score (DSS) (DSS score); higher = more sensitive (stronger growth inhibition); extreme values may be limits of the assay
Give only the figure.

Some compounds with recorded drug sensitivity score:
Clc1ccc(Nc2nnc(Cc3ccncc3)c3ccccc23)cc1 [Vatalanib] = 0
Cc1cc(OCc2nnc(SC3CCCC3)n2-c2cccnc2)ccc1-c1ccc(S(C)(=O)=O)cc1 [NMS-873] = 22.2

Exercise: What drug sensitivity score value was documented for this compound, COc1cc(OC2CCN(C)CC2)ccc1Nc1ncc2c(n1)n(C1CCCC1)c(=O)n2C [AZ 3146] ?
Key: 6.05

Exercise: Lookup Nc1nc(F)nc2c1ncn2[C@@H]1O[C@H](CO)[C@@H](O)[C@@H]1O [Fludarabine]
Key: 0

Exercise: What do you have for CC/C(=C(\c1ccccc1)c1ccc(OCCN(C)C)cc1)c1ccccc1 [Tamoxifen] ?
Key: 3.5

Exercise: And then COc1cc2ncnc(Nc3ccc(F)c(Cl)c3)c2cc1NC(=O)/C=C/CN1CCCCC1 [Dacomitinib] , what is it?
Key: 0.25

Exercise: Here is the next compound: Nc1ncnc2c1c(COc1cccc(Cl)c1)nn2C1CCOCC1
Key: 0.05

Exercise: Also, CO[C@H]1C[C@@H]2CC[C@@H](C)[C@@](O)(O2)C(=O)C(=O)N2CCCC[C@H]2C(=O)O[C@H]([C@H](C)C[C@@H]2CC[C@@H](OCCO)[C@H](OC)C2)CC(=O)[C@H](C)/C=C(\C)[C@@H](O)[C@@H](OC)C(=O)[C@H](C)C[C@H](C)/C=C/C=C/C=C/1C [Everolimus] please.
Key: 0

Exercise: # repeat for O=c1ncn2nc(Sc3ccc(F)cc3F)ccc2c1-c1c(Cl)cccc1Cl [Neflamapimod]
Key: 0

Exercise: Try CC(C)(C)Cn1c(N)nc2ccc(-c3[nH]c(C(C)(C)C)nc3-c3ccc(F)cc3)nc21 [Ralimetinib] next.
Key: 0.7

Exercise: Then what about the compound CO[C@@H](C)Cn1c(=O)n(C)c2cnc3ccc(-c4cncc(C(C)(C)O)c4)cc3c21 ?
Key: 10.2

Exercise: Try this compound next: COCC1(CO)C(=O)C2CCN1CC2 (stereo unspecified) [APR-246]
Key: 0.35

Exercise: Entry to check: CCc1cc2c(cc1N1CCC(N3CCOCC3)CC1)C(C)(C)c1[nH]c3cc(C#N)ccc3c1C2=O [Alectinib]
Key: 0

Exercise: Follow-up item: COc1ccc(-c2ccc3ncc4c(c3c2)n(-c2ccc(N3CCNCC3)c(C(F)(F)F)c2)c(=O)n4C)cn1 [NVP-BGT226]
Key: 14.5

Exercise: Lookup CC[C@@H]1C(=O)N(C)c2cnc(Nc3ccc(C(=O)NC4CCN(C)CC4)cc3OC)nc2N1C1CCCC1 [BI 2536]
Key: 8.8

Exercise: Now this one: CCn1c(-c2nonc2N)nc2c(C#CC(C)(C)O)ncc(OC[C@H]3CCCNC3)c21
Key: 0
